meta.source: patent US11198696B2

What pIC50 was measured for each of the following?
molecular target: TRPC5 (Homo sapiens); construct: expressed in transfected cells; host or cells: HEK293 TREx cells, inducible TRPC5 expression, induced 20-48 hours; test: Assay A: Determination of TRPC5-Inhibition (whole-cell patch clamp); format: cell-based; conditions: compounds of the present invention, TRPC5-expressing HEK293 TREx cells, LaCl3-activated current
Sequence (Q9UL62 whole entry): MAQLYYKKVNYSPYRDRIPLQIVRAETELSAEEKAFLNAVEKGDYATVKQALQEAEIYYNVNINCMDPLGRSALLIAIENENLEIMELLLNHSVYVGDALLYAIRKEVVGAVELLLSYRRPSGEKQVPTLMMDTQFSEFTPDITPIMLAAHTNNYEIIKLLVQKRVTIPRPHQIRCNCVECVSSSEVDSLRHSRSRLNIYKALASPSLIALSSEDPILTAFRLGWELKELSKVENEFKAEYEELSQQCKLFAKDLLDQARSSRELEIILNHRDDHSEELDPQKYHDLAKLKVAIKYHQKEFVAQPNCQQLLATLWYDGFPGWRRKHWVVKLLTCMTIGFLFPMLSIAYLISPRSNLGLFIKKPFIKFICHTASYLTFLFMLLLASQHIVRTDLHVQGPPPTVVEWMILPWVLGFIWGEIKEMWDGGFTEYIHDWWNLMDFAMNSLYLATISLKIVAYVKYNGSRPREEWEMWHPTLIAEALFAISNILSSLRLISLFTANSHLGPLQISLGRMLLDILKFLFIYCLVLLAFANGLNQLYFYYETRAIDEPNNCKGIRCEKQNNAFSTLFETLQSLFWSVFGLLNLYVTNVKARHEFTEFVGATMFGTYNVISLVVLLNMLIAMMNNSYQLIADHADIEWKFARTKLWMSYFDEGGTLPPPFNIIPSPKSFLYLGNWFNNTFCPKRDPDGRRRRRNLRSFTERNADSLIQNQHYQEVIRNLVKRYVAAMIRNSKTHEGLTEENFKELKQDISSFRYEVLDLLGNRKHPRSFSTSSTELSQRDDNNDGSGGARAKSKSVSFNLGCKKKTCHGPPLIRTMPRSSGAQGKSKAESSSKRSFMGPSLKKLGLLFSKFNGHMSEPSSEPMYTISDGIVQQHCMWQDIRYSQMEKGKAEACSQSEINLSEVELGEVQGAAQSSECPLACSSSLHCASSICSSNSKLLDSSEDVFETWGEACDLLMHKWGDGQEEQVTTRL
Answers are plain numbers, as −log10 of the molar value.

CCn1c(=O)n(CCCO)c(=O)c2c1nc(-c1ccc(OC3CCC3)nc1)n2Cc1ccc(C(F)(F)F)cc1 :: 8.80
CCn1c(=O)n(CCCO)c(=O)c2c1nc(-c1ccc(OC3CC(C)C3)nc1C)n2Cc1ccc(Cl)cc1 (stereo not shown) :: 9.70
CCn1c(=O)n(CCCO)c(=O)c2c1nc(-c1ccc(OC3C[C@@H]4C[C@@H]4C3)nc1C)n2Cc1ccc(F)cc1 (stereo partly shown) :: 8.76

Next:
In plain terms, CCn1c(=O)n(CCCO)c(=O)c2c1nc(-c1ccc(OC3CC(F)(F)C3)nc1C)n2Cc1ccc(F)cc1 has a documented pIC50 of 9.07
